This section lists Ki readings for Pnc1 (Saccharomyces cerevisiae, UniProt P53184).
One number for each entry, in µM.

Worked set:
> print(dat)
     smiles.entry  readout.value
1  O=C(O)c1cnccn1           6700
2     O=Cc1cccnc1           0.94
3  O=C(O)c1cccnc1            120
4     O=Cc1ccccc1          20600

Continue with the molecule presented below.
Asked: Using the record for `CC(=O)c1cccnc1` , state its measured Ki.
Given back: 316

# credit: paper PMC3257521
